Tested on: 327498-153-R-J2-PDC complex spheroid growth, % test/control
Assay: Anticancer human tumor 327498-153-R-J2-PDC patient-derived uterine carcinosarcoma cell line growth inhibition [Asc]
Conditions: second compound 1 µM; first compound 1 µM; stronger effect = lower value
Record form. Attribute: viability, T/C. Fill in for each entry.
Give bare numbers, in %.

- CCN1CCN(Cc2ccc(Nc3ncc(F)c(-c4cc(F)c5nc(C)n(C(C)C)c5c4)n3)nc2)CC1 + CNC(C)C(=O)NC1CN(S(=O)(=O)c2cccc(S(=O)(=O)N3CCC4CCC(C(=O)NC(c5ccccc5)c5ccccc5)N4C(=O)C(NC(=O)C(C)NC)C3)c2)CCC2CCC(C(=O)NC(c3ccccc3)c3ccccc3)N2C1=O: 54.7
- O=C(c1ccc(F)c(F)c1Nc1ccc(I)cc1F)N1CC(O)([C@@H]2CCCCN2)C1 + CNC(C)C(=O)NC1CN(S(=O)(=O)c2cccc(S(=O)(=O)N3CCC4CCC(C(=O)NC(c5ccccc5)c5ccccc5)N4C(=O)C(NC(=O)C(C)NC)C3)c2)CCC2CCC(C(=O)NC(c3ccccc3)c3ccccc3)N2C1=O: 20

Now consider the entry below.
Value wanted: viability, T/C (327498-153-R-J2-PDC complex spheroid growth, % test/control) of entry O=C(c1cc(Cc2n[nH]c(=O)c3ccccc23)ccc1F)N1CCN(C(=O)C2CC2)CC1 + CNC(C)C(=O)NC1CN(S(=O)(=O)c2cccc(S(=O)(=O)N3CCC4CCC(C(=O)NC(c5ccccc5)c5ccccc5)N4C(=O)C(NC(=O)C(C)NC)C3)c2)CCC2CCC(C(=O)NC(c3ccccc3)c3ccccc3)N2C1=O
90.3

###

Task for the reader: assign each of the following compounds its reported viability, T/C.
Test system: 327498-153-R-J2-PDC complex spheroid growth, % test/control
Test: Anticancer human tumor 327498-153-R-J2-PDC cell line growth inhibition [Asc];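 further: spheroids exposed to compound for 7 days after 3 days of growth; 100% = DMSO vehicle control wells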
Details: second compound 1 µM; first compound 0.1 µM; stronger effect = lower value
Numbers only, in %.

Sample answers from the record:
* C=C(F)C(=O)N1CCN(c2nc(OCC3CCCN3C)nc3c2CCN(c2cccc4cccc(Cl)c24)C3)CC1CC#N (stereo unspecified) + CNC(C)C(=O)NC1CN(S(=O)(=O)c2cccc(S(=O)(=O)N3CCC4CCC(C(=O)NC(c5ccccc5)c5ccccc5)N4C(=O)C(NC(=O)C(C)NC)C3)c2)CCC2CCC(C(=O)NC(c3ccccc3)c3ccccc3)N2C1=O | 78.8
* C=CC(=O)N1CCN(c2nc(=O)n(-c3c(C)ccnc3C(C)C)c3nc(-c4c(O)cccc4F)c(F)cc23)C(C)C1 (stereo unspecified) + CNC(C)C(=O)NC1CN(S(=O)(=O)c2cccc(S(=O)(=O)N3CCC4CCC(C(=O)NC(c5ccccc5)c5ccccc5)N4C(=O)C(NC(=O)C(C)NC)C3)c2)CCC2CCC(C(=O)NC(c3ccccc3)c3ccccc3)N2C1=O | 78.8
* CCN1CCN(Cc2ccc(Nc3ncc(F)c(-c4cc(F)c5nc(C)n(C(C)C)c5c4)n3)nc2)CC1 + Cc1c(S(C)(=O)=O)c(-c2cc(F)cc(N3CCN(c4ccc(NS(=O)(=O)c5ccc(NC(CCN6CCC(C(=O)OCCCP(=O)(O)O)CC6)CSc6ccccc6)c(S(=O)(=O)C(F)(F)F)c5)cc4)CC3)c2)c(-c2ccc(Cl)cc2)n1C(C)C | 65.7

Parameters: items (list). Returns: viability, T/C for each item.
1. Cn1ncnc1[C@H]1c2n[nH]c(=O)c3cc(F)cc(c23)N[C@@H]1c1ccc(F)cc1 + Cc1c(S(C)(=O)=O)c(-c2cc(F)cc(N3CCN(c4ccc(NS(=O)(=O)c5ccc(NC(CCN6CCC(C(=O)OCCCP(=O)(O)O)CC6)CSc6ccccc6)c(S(=O)(=O)C(F)(F)F)c5)cc4)CC3)c2)c(-c2ccc(Cl)cc2)n1C(C)C
2. O=C(c1cc(Cc2n[nH]c(=O)c3ccccc23)ccc1F)N1CCN(C(=O)C2CC2)CC1 + Cc1c(S(C)(=O)=O)c(-c2cc(F)cc(N3CCN(c4ccc(NS(=O)(=O)c5ccc(NC(CCN6CCC(C(=O)OCCCP(=O)(O)O)CC6)CSc6ccccc6)c(S(=O)(=O)C(F)(F)F)c5)cc4)CC3)c2)c(-c2ccc(Cl)cc2)n1C(C)C
3. C=CC(=O)N1CCN(c2nc(=O)n(-c3c(C)ccnc3C(C)C)c3nc(-c4c(O)cccc4F)c(F)cc23)C(C)C1 (stereo unspecified) + Cc1c(S(C)(=O)=O)c(-c2cc(F)cc(N3CCN(c4ccc(NS(=O)(=O)c5ccc(NC(CCN6CCC(C(=O)OCCCP(=O)(O)O)CC6)CSc6ccccc6)c(S(=O)(=O)C(F)(F)F)c5)cc4)CC3)c2)c(-c2ccc(Cl)cc2)n1C(C)C

1. 5.39
2. 102
3. 71.9
